Recorded measurements of pIC50, one per entry
Target: human MC5R (hMC5R) (Homo sapiens)
Construct: purchased Perkin Elmer RBXMC5M400UA
Sequence (P33032 whole entry): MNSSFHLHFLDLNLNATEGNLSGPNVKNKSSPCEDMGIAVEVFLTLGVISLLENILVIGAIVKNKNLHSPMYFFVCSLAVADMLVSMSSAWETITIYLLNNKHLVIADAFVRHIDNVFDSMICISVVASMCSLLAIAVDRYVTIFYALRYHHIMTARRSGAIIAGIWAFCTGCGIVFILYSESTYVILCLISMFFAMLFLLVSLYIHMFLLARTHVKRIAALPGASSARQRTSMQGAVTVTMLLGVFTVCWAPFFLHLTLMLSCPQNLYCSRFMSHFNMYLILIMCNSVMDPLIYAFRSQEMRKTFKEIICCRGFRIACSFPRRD
Experiment: Human MC5R radioligand binding assay (membranes, [125I] NDP-MSH displacement)
Settings: hMC5R binding; tested as trifluoroacetate or hydrochloride salts, or free bases; read-out: MC5R radioligand IC50
Method: Assessments of compound binding to human MC5R (hMC5R) ) by displacement of an ^125I-labeled NDP-MSH receptor ligand peptide were performed essentially as described in the data sheets produced by Perkin Elmer to accompany their frozen hMC5R membranes (Perkin Elmer catalog number RBXMC5M400UA). [^125I] NDP-MSH: radiolabeled in house and purified by HPLC: • Na^125I (0.5 mCi, 17.4 Ci/mg) was added to 50 μL sodium phosphate (50 mM, pH7.4) in an eppendorf tube precoated with IODOGEN. […]
pIC50: −log10 of the molar value.
measured endpoint: pIC50

[[record]]
compound = "NCCC[C@@H]1N[C@H](CNC(=O)C=Cc2ccccc2)CCN(CC(c2ccccc2)c2ccccc2)C1=O"
meas_value = "> 6.00"

[[record]]
compound = "N=C(N)NCCC[C@@H]1N[C@H](CNC(=O)c2cc3ccccc3s2)CCN(CC(c2ccccc2)c2ccccc2)C1=O"
meas_value = "> 6.00"

[[record]]
compound = "N=C(N)NCCC[C@@H]1N[C@H](CNC(=O)c2ccc3ccccc3c2)CCN(CC2CCCCC2)C1=O"
meas_value = "> 6.00"

[[record]]
compound = "CC[C@H](CN1CC[C@@H](CNC(=O)c2ccc(Cl)c(Cl)c2)N[C@@H](CN2CCCCC2)C1=O)c1ccccc1"
meas_value = "> 6.00"

[[record]]
compound = "CCC(C)(CC)CN1CC[C@@H](CNC(=O)c2ccc(Cl)c(Cl)c2)N[C@@H](CCN2CCCCC2)C1=O"
meas_value = "> 7.00"

[[record]]
compound = "CS(=O)(=O)NCC[C@@H]1N[C@H](CNC(=O)c2ccc(Cl)c(Cl)c2)CCN(Cc2ccc(Cl)cc2Cl)C1=O"
meas_value = "> 5.00"

[[record]]
compound = "CC[C@H](CN1CC[C@@H](CNC(=O)c2ccc(Cl)cc2Cl)N[C@@H](CCN2CCCCC2)C1=O)c1ccccc1"
meas_value = "> 8.00"

[[record]]
compound = "CC[C@H](CN1CC[C@@H](CN(Cc2ccc(Cl)c(Cl)c2)C(C)=O)N[C@@H](CCN2CCCCC2)C1=O)c1ccccc1"
meas_value = "> 5.00"

[[record]]
compound = "N=C(N)NCCC[C@@H]1N[C@H](CNC(=O)c2ccc3ccccc3c2)CCN(CC(OCc2ccccc2)c2ccccc2)C1=O (some centres unmarked)"
meas_value = "> 6.00"

[[record]]
compound = "C=C(C)C(CC)CN1CC[C@@H](CNC(=O)c2ccc(Cl)c(Cl)c2)N[C@@H](CCN)C1=O (some centres unmarked)"
meas_value = "> 5.00"

[[record]]
compound = "C[C@@H](C(c1ccccc1)c1ccccc1)N1CC[C@@H](CNC(=O)c2ccc3ccccc3c2)N[C@@H](CCCNC(=N)N)C1=O"
meas_value = "> 7.00"

[[record]]
compound = "CC(=O)N[C@@H](Cc1ccc2ccccc2c1)[C@@H]1CCN(CC(c2ccccc2)c2ccccc2)C(=O)[C@H](CCCNC(=N)N)N1"
meas_value = "> 5.00"

[[record]]
compound = "CC(C)C(CN1CC[C@@H](CNC(=O)c2ccc3ccccc3c2)N[C@@H](CCN)C1=O)c1ccccc1 (some centres unmarked)"
meas_value = "> 5.00"

[[record]]
compound = "N=C(N)NCCC[C@@H]1N[C@H](CNC(=O)/C=C/c2ccccc2O)CCN(CC(c2ccccc2)c2ccccc2)C1=O"
meas_value = "> 6.00"


Taken from patent US8008291B2.
